# System: E. faecium clinical isolates (n = 12) vanA (6)/vanB (6)
# Assay details: MIC, multidrug-resistant clinical isolates
# Format: cell-based
# Experimental setup: Enterococcus faecium
In this section we review reported MIC50 values for a set of compounds.
The answer is to be given in µg/mL; state only the numeric part.

Worked set:
Compound	Tested on	MIC50 / µg/mL
Cl.N#Cc1ccc2ccc(=O)n([C@H]3CC[C@H](NCc4cc5c(=O)oc6ccc(F)cc6c5[nH]4)CC3)c2c1	E. faecium clinical isolates (n = 12) vanA (6)/vanB (6)	0.12
O=C1COc2ncc(F)cc2N1[C@H]1CC[C@H](NCc2cc3c(=O)oc4ccc(F)cc4c3[nH]2)CC1	E. faecium clinical isolates (n = 12) vanA (6)/vanB (6)	1
Cl.O=c1oc2ccc(F)cc2c2[nH]c(CN[C@H]3CC[C@H](n4c(=O)ccc5ncc(F)cc54)CC3)cc12	E. faecium clinical isolates (n = 12) vanA (6)/vanB (6)	0.12

GET /values?readout=MIC50&system=E. faecium clinical isolates (n = 12) vanA (6)/vanB (6)&item= CC(=O)NC[C@H]1CN(c2ccc(N3CCOCC3)c(F)c2)C(=O)O1 [linezolid, reference compound]
2

GET /values?readout=MIC50&system=E. faecium clinical isolates (n = 12) vanA (6)/vanB (6)&item= "COc1cnc2ncc(=O)n([C@H]3CC[C@H](NCc4cc5c(=O)oc6ccc(F)cc6c5[nH]4)CC3)c2c1"
1

GET /values?readout=MIC50&system=E. faecium clinical isolates (n = 12) vanA (6)/vanB (6)&item= "O=c1oc2ccc(F)cc2c2[nH]c(CN[C@H]3CC[C@H](n4c(=O)cnc5ncc(F)cc54)CC3)cc12"
1

Where these numbers come from: paper PMC7029851
